- Study target: human CCR8 (human, UniProt P51685 1-355)
- Sequence (P51685 whole entry): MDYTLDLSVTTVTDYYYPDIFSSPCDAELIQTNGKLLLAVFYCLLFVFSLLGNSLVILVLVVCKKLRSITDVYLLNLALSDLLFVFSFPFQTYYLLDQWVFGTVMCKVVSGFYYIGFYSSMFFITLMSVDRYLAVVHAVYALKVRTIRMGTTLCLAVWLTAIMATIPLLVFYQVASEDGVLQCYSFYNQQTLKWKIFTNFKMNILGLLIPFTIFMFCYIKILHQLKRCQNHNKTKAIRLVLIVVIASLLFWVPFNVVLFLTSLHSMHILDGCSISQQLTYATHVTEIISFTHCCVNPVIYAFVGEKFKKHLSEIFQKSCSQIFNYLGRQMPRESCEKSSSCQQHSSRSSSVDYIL
- Test protocol: cell-based or functional assay
Measured IC50 antagonism of EC80 Human CCL1 Gαz Biosensor values are reported for all entries that follow.
The figure you give is taken to be in nM; do not add the unit.

Worked cases, answers included:
Form field: reported IC50 antagonism of EC80 Human CCL1 Gαz Biosensor of ADI-40352 (antibody, V domains shown) VH: QLQLQESGPGLVKPSETLSLTCTVSGGSISSSSYAWGWIRQPPGKRLEWIGSIYYTGSTYYNPSLKSRVTISVDTSKNQFSLKLSSVTAADTAVYYCLRGHRRDYIAFDIWGQGTMVTVSS VL: DIQMTQSPSSLSASVGDRVTITCRASQSISSYLNWYQQKPGKAPKLLIYAASSLQSGVPSRFSGSGSGTDFTLTISSLQPEDFATYYCQQSHNLPTFGGGTKVEIK
2.39

Form field: reported IC50 antagonism of EC80 Human CCL1 Gαz Biosensor of ADI-40360 (antibody, V domains shown) VH: QLQLQESGPGLVKPSETLSLTCTVSGGSISSSSYAWGWIRQPPGKRLEWIGSIYYTGSTYYNPSLKSRVTISVDTSKNQFSLKLSSVTAADTAVYYCVRGHRRDYIAFDIWGQGTMVTVSS VL: DIQMTQSPSSLSASVGDRVTITCRASQSISSYLNWYQQKPGKAPKLLIYAASSLQSGVPSRFSGSGSGTDFTLTISSLQPEDFATYYCQQSHNLPTFGGGTKVEIK
1.14

More entries:
Form field: reported IC50 antagonism of EC80 Human CCL1 Gαz Biosensor of ADI-46663 (antibody, V domains shown) VH: EVQLVESGGGLVQPGGSLRLSCAASGFTFNAYAMNWVRQAPGKGLEWVARIRSKSNNYATYYADSVKDRFTISRDDSKNSLYLQMNSLKTEDTAVYYCVRQSYGNSNYAMDYWGQGTTVTVSS VL: DIVMTQSPLSLPVTPGEPASISCRSSKSLLHSNGNTYLYWYLQKPGQSPQLLIYRMSNLASGVPDRFSGSGSGTDFTLKISRVEAEDVGVYYCMQHLEYPFTFGGGTKVEIK
1.79
